Target: T1, gp100 (human)
T1 construct: cell surface;cell surface complex; also called HLA-A2 / gp100 peptide complex on T2 cells
Test: flow cytometry on peptide-pulsed T2 cells, scFv 100 nM;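 also: scFv binding read as gMFI and normalized to the level of HLA/peptide complex displayed on T2 cells, with homologous 9-mer peptides used to probe specificity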
reported.endpoint: standardized gMFI

1) NYA-1163 (scFv) scFv: GEVQLVESGGGVVQPGRSLTPSCSASGFSIRSYDIHWVRLAPGKGLEWVATISYDGSQKYFADSVKGRFTIFRDESENMVYLQMSGLRVEDTAVYHCARGSSGHYEAFDIWGQGTMVTVSSGGGGSGGGGSGGGGSQSVLTQPPSVSAAPGQKVTISCSGSSSNIGNNYVSWYQQLPGTAPKLLIYDNNKRPSGIPDRFSGSKSGTSATLGITGLQTGDEADYYCGTWDSSLSAPWVFGGGTKVTVLGAAAGAGGDYKDDDDKGAAAHHHHHH: 0.3
